Molecular target: R^525–610, N6His- and GST-tagged recombinant protein (maize)
Test: AlphaScreen or HTRF; ALPHA saturation binding, apparent Kd; N6His-tagged and GST-tagged copies, one at 100 nM (R^ACT) or 500 nM (GL3^ACT), the other 0–4 μM (R^ACT) or 0–5 μM (GL3^ACT); Nickel Chelate donor and anti-GST acceptor beads; room temperature 2 h; one-site fit
parameter.measured: Kd (nM)
Report the value in nM with no unit label.

[ask] # get_value(readout='Kd', item= R^525–610, N6His- and GST-tagged recombinant protein (domain or fragment) MDAGTSNVTVTVSDKDVLLEVQCRWEELLMTRVFDAIKSLHLDVLSVQASAPDGFMGLKIRAQFAGSGAVVPWMISEALRKAIGKR )
[reply] 100
